molecular target: pSTAT3 (pY705-STAT3) (Homo sapiens, UniProt P40763); construct: host or cells: cryopreserved PBMC; assay: MSD-pSTAT-PBMC Assay (pSTAT3, IL-6 stimulated); type: cell-based; details: PBMC, compound 3 hrs, then 10 ng/mL IL-6 for 10 min; MSD pY705-STAT3; read-out: pSTAT3
Sequence (P40763 whole entry): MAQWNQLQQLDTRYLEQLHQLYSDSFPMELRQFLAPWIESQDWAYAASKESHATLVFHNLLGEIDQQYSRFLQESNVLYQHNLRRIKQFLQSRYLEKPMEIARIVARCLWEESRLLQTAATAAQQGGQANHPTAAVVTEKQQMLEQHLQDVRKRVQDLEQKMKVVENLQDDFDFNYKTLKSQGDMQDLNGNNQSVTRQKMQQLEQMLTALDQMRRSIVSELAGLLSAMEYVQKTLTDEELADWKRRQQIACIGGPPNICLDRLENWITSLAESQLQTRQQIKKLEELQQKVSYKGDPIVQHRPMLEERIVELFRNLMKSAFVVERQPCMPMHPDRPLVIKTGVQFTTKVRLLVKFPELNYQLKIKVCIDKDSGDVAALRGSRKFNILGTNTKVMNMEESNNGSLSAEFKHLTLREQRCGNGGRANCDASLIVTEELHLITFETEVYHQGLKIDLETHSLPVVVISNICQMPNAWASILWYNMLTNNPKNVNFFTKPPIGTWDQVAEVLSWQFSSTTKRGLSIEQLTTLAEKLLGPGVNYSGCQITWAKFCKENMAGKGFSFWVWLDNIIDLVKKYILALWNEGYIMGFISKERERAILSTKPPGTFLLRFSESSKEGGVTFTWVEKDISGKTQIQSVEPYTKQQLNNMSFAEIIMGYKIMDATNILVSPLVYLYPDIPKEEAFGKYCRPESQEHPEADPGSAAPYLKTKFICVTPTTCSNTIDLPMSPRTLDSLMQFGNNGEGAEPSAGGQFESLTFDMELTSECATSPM
pIC50: −log10 of the molar value.
EXPERIMENTAL READOUT: pIC50

Exercise: Please state recorded pIC50 (tested on pSTAT3 (pY705-STAT3) (Homo sapiens, UniProt P40763)) of CC(C)(CO)C(=O)SCCOP(=O)(OCCSC(=O)C(C)(C)CO)C(F)(F)c1ccc2sc(C(=O)N[C@H]3C[C@@H]4C[C@@H]4C[C@H]4CC[C@@H](C(=O)N5CC(C(=O)N6CCOCC6)C5)N4C3=O)cc2c1 [Compound 131]
Key: 6.00 to 7.00

Exercise: Please state recorded pIC50 (tested on pSTAT3 (pY705-STAT3) (Homo sapiens, UniProt P40763)) of CC(C)(C)C(=O)SCCOP(=O)(OCCSC(=O)C(C)(C)C)C(F)(F)c1ccc2sc(C(=O)N[C@H]3C[C@H]4C[C@H]4C[C@H]4CC[C@@H](C(=O)N5CC(c6ccccn6)C5)N4C3=O)cc2c1 [Compound 218]
Key: > 7.00

Exercise: Please state recorded pIC50 (tested on pSTAT3 (pY705-STAT3) (Homo sapiens, UniProt P40763)) of CC(C)CC(=O)SCCOP(=O)(Oc1ccccc1)C(F)(F)c1ccc2sc(C(=O)N[C@H]3C[C@H]4C[C@H]4C[C@H]4CC[C@@H](C(=O)N5CC(c6cccnc6)C5)N4C3=O)cc2c1 (some centres unmarked) [Compound 193]
Key: > 7.00

Exercise: Please state recorded pIC50 (tested on pSTAT3 (pY705-STAT3) (Homo sapiens, UniProt P40763)) of CC(C)(C)C(=O)OCOP(=O)(OCOC(=O)C(C)(C)C)C(F)(F)c1ccc2sc(C(=O)N[C@H]3C[C@@H]4C[C@@H]4C[C@H]4CC[C@@H](C(=O)N[C@@H]5CCN(c6cccnc6)C5)N4C3=O)cc2c1 [Compound 212]
Key: > 7.00

Exercise: Please state recorded pIC50 (tested on pSTAT3 (pY705-STAT3) (Homo sapiens, UniProt P40763)) of CCCOC(=O)[C@H](C)NP(=O)(Oc1ccccc1)C(F)c1ccc2sc(C(=O)N[C@H]3C[C@@H]4C[C@@H]4C[C@H]4CC[C@@H](C(=O)N5CC(c6ncco6)C5)N4C3=O)cc2c1 (some centres unmarked) [Compound 323]
Key: > 7.00

Exercise: Please state recorded pIC50 (tested on pSTAT3 (pY705-STAT3) (Homo sapiens, UniProt P40763)) of CC(=O)N1C[C@H](NC(=O)[C@@H]2CC[C@@H]3C[C@H]4C[C@H]4C[C@H](NC(=O)c4cc5cc(C(F)(F)P(=O)(OCOC(=O)C(C)(C)C)OCOC(=O)C(C)(C)C)ccc5s4)C(=O)N32)[C@@H](O)C1 [Compound 208]
Key: > 7.00

Exercise: Please state recorded pIC50 (tested on pSTAT3 (pY705-STAT3) (Homo sapiens, UniProt P40763)) of O=C(OCOP(=O)(OCOC(=O)OC1CCOCC1)C(F)(F)c1ccc2sc(C(=O)N[C@H]3C[C@@H]4C[C@@H]4C[C@H]4CC[C@@H](C(=O)N5CC(C(=O)N6CCOCC6)C5)N4C3=O)cc2c1)OC1CCOCC1 [Compound 162]
Key: 6.00 to 7.00

Exercise: Please state recorded pIC50 (tested on pSTAT3 (pY705-STAT3) (Homo sapiens, UniProt P40763)) of CC(C)(C)C(=O)OCOP(=O)(Cc1ccc2sc(C(=O)N[C@H]3C[C@@H]4C[C@@H]4C[C@H]4CC[C@@H](C(=O)N5CC(n6ccnc6)C5)N4C3=O)cc2c1)OCOC(=O)C(C)(C)C [Compound 156]
Key: > 7.00

====

molecular target: Recombinant STAT6 protein (STAT6(W123-T658)) (Homo sapiens, UniProt P42226); construct: STAT6(W123-T658); assay: STAT6 Fluorescence Polarization (FP) Assay; settings: STAT6(W123-T658) 250 nM, probe 5-FAM-ApYKPFQDLI-NH2 2 nM, 45-minute incubation
EXPERIMENTAL READOUT: IC50

Exercise: Recorded IC50 of `O=C(N[C@H]1C[C@H]2C[C@H]2C[C@H]2CC[C@@H](C(=O)N3CC(n4ccnc4)C3)N2C1=O)c1cc2cc(C(F)(F)P(=O)(O)O)ccc2s1` , please.
Key: 3 to 30 µM

Exercise: Recorded IC50 of COc1ccncc1C1CN(C(=O)[C@@H]2CC[C@@H]3C[C@H]4C[C@H]4C[C@H](NC(=O)c4cc5cc(C(F)P(=O)(O)O)ccc5s4)C(=O)N32)C1 (some centres unmarked) , please.
Key: 3 to 30 µM

Exercise: Recorded IC50 of `O=C(N[C@H]1C[C@@H]2C[C@@H]2C[C@H]2CC[C@@H](C(=O)N3CC(Cc4cncnc4)C3)N2C1=O)c1cc2cc(CP(=O)(O)O)ccc2s1` , please.
Key: > 30 µM

Exercise: Recorded IC50 of `NC(=O)N1CC[C@@H](NC(=O)[C@@H]2CC[C@@H]3C[C@H]4C[C@H]4C[C@H](NC(=O)c4cc5cc(C(F)(F)P(=O)(O)O)ccc5s4)C(=O)N32)C1` , please.
Key: 0.3 to 3 µM

Exercise: Recorded IC50 of `CC(=O)N1C[C@H](NC(=O)[C@@H]2CC[C@@H]3C[C@]4(C)C[C@@H]4C[C@H](NC(=O)c4cc5cc(CP(=O)(O)O)ccc5s4)C(=O)N32)[C@@H](F)C1` , please.
Key: 3 to 30 µM

====

Target: pSTAT6 (pY641-STAT6) (Homo sapiens)
Sequence (P42226 1-847): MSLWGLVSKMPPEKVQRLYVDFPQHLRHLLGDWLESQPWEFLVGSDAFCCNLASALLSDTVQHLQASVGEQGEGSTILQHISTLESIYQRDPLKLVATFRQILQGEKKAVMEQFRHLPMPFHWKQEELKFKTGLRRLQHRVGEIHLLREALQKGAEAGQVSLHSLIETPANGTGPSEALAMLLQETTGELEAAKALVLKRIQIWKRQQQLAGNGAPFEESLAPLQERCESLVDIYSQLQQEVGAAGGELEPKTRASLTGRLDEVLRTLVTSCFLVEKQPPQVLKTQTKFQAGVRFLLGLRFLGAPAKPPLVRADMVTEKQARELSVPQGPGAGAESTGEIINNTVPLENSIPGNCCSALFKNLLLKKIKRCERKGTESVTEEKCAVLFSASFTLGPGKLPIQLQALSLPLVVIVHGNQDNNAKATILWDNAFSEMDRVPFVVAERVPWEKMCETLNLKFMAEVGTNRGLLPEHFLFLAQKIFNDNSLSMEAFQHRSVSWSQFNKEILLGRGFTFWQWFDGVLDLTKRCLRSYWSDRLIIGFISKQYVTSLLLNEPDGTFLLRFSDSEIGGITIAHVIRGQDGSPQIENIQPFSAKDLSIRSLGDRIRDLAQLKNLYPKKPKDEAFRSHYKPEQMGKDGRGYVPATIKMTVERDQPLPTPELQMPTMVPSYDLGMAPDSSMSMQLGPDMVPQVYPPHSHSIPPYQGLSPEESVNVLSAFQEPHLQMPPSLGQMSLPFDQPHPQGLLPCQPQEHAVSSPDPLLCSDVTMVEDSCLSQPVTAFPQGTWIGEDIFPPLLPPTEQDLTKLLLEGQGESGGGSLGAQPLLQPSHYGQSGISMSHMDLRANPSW
Assay: MSD-pSTAT-PBMC Assay (pSTAT6, IL-4 stimulated)
Settings: compound 3 hrs, then 1 ng/mL IL-4 for 10 min
pIC50: −log10 of the molar value.
For each record, write down the corresponding pIC50.

Exercise: Recorded pIC50 of CC(C)OC(=O)OCOP(=O)(OCOC(=O)OC(C)C)[C@@H](F)c1ccc2sc(C(=O)N[C@H]3C[C@H]4C[C@H]4C[C@H]4CC[C@@H](C(=O)N5CC(c6cccnc6)C5)N4C3=O)cc2c1 [Compound 152] , please.
Key: 6.00 to 7.00

Exercise: Recorded pIC50 of CC(C)(C)C(=O)SCCOP(=O)(OCCSC(=O)C(C)(C)C)C(F)(F)c1ccc2sc(C(=O)N[C@H]3C[C@H]4C[C@H]4C[C@H]4CC[C@@H](C(=O)N5CC(c6c[nH]cn6)C5)N4C3=O)cc2c1 [Compound 219] , please.
Key: 6.00 to 7.00

Exercise: Recorded pIC50 of CC(C)CC(=O)SCCOP(=O)(Oc1ccccc1)C(F)(F)c1ccc2sc(C(=O)N[C@H]3C[C@@H]4C[C@@H]4C[C@H]4CC[C@@H](C(=O)N5CC(C(=O)N6CCOCC6)C5)N4C3=O)cc2c1 (some centres unmarked) [Compound 185] , please.
Key: < 5.52

Exercise: Recorded pIC50 of O=C(OCOP(=O)(OCOC(=O)OC1CCOCC1)C(F)(F)c1ccc2sc(C(=O)N[C@H]3C[C@H]4C[C@H]4C[C@H]4CC[C@@H](C(=O)N5CC(c6cccnc6)C5)N4C3=O)cc2c1)OC1CCOCC1 [Compound 166] , please.
Key: < 5.52

Exercise: Recorded pIC50 of CC(C)CC(=O)SCCOP(=O)(OCOC(=O)OC(C)C)C(F)(F)c1ccc2sc(C(=O)N[C@H]3C[C@@H]4C[C@@H]4C[C@H]4CC[C@@H](C(=O)N5CC(C(=O)N6CCOCC6)C5)N4C3=O)cc2c1 (some centres unmarked) [Compound 141] , please.
Key: 5.52 to 6.00
